# experimental_target: glucose-6-phosphate dehydrogenase-6-phosphogluconolactonase (Plasmodium falciparum 3D7)
# assay_explanation: PfG6PD enzyme inhibitors, kinetic NADPH readout, dose response, orthogonal assay, biochemical, kinetic NADPH detection (AID 540269)
# condition_set: purified PfG6PD-6PGL
Calls of active or inactive are those of the source. How the calls were made is not given here.
Valid outcomes are listed here; reply with one: active, inactive

CSc1nnc(NC(=O)c2ccc3c(c2)OCO3)s1: active
CN=c1scc(C)n1/N=C/c1ccc(O)c(O)c1O: active
CN1CCc2cccc3c2[C@@H]1Cc1ccc(O)c(O)c1-3: inactive

Tell me the recorded outcome of this test for COc1ccc(CCn2c(NN=C(C)C)nc3c2c(=O)[nH]c(=O)n3C)cc1 .
inactive

Input O=c1[nH]c(NCCO)c(N=Cc2ccccc2)c(=O)[nH]1
inactive

Input CCc1nnc(NC(=O)c2ccc(Cl)nc2)s1
inactive

Input S=c1ncc2[nH]c(=S)[nH]c2[nH]1
active

Input COc1ccc(S(=O)(=O)Nc2cc(SCC(=O)O)c(O)c3ccccc23)cc1
active

// provenance: PubChem BioAssay AID540269
